Data origin: PubChem BioAssay (NCI)

Test system: RXF 393 renal
experimental protocol: NCI tumour cell line growth inhibition, 48 h
Task for the reader: assign each of the following compounds its reported TGI.
Kindly answer with a numeric value in µM, unit omitted.

Query: Quick one: TGI for O=C1Nc2c(ccc(Cl)c2Cl)/C1=C\c1cc(C(F)(F)F)cc(C(F)(F)F)c1 ?
Reply: 2.94

Query: Consider the compound shown here: O=C1C(Cl)C(c2ccc([N+](=O)[O-])cc2)N1n1cnc2ccccc2c1=O (stereo not given) What is its recorded TGI?
Reply: 72.1

Query: So what's the measured TGI for this one? CNC(=O)c1cc(Oc2ccc3nc(NC(=O)Nc4cc(C(F)(F)F)cc(C(F)(F)F)c4)sc3c2)ccn1
Reply: 2.99

Query: Entry CN1C(=O)[C@@H]2[C@@H]3c4ccccc4N[C@@H]3c3[nH]c4ccccc4c3[C@@H]2C1=O has what TGI?
Reply: 64.4

Query: Entry under review: CC/C(=C(/CC)c1ccc(O)cc1)c1ccc(O)cc1 . Reported TGI?
Reply: 21.8

Query: Which TGI is listed for COC1=CC(c2ccc[nH]2)=N/C1=C\c1[nH]c(C)c(C)c1CCC(=O)OCc1ccccc1 ?
Reply: 1.83

Query: May I ask what TGI has been recorded for C[C@]12CCC(=O)C=C1CC[C@@H]1C2CC[C@@]2(C)C1CC[C@@H]2OC(=O)C12OC1CCC2=O (stereo not given in full) ?
Reply: 16.8

Query: Dear colleague, I am looking for the recorded TGI of the following compound: CCOC(=O)Nc1cc(-c2ccc(C)c(NS(C)(=O)=O)c2)nn2c(C)nnc12
Reply: 12.9
